System: P. aeruginosa ATCC 27853 inner membrane potential
Assay: DiOC2 (3) membrane polarization assay
Format: cell-based, Pseudomonas aeruginosa
Details: Pseudomonas aeruginosa, ATCC27853; read-out: IC50 (DiOC2 (3) membrane polarization, Figure 4A)

[
  {
    "MOLECULE": "N#CC(C#N)=NNc1cccc(Cl)c1 [CCCP, Carbonyl cyanide 3-chlorophenylhydrazone]",
    "ENDPOINT_UNIT": "nM",
    "IC50": 15
  }
]

---

Measured Antibiotic MIC in Presence of TXA09155 at a Concentration of 25, listed per entry for reference.
System: P. aeruginosa ATCC 27853
Test: MIC / antibiotic potentiation assay, wild-type strain
Conditions: TXA09155 25 μg/mL
METRIC_NAME: Antibiotic MIC in Presence of TXA09155 at a Concentration of 25 (µg/mL)

[
  {
    "COMPOUND": "C[C@H]1[C@H](NC(=O)/C(=N\\OC(C)(C)C(=O)O)c2csc(N)n2)C(=O)N1S(=O)(=O)O [Aztreonam]",
    "TARGET_SYSTEM": "P. aeruginosa ATCC 27853",
    "VALUE": 0.25
  },
  {
    "COMPOUND": "COc1c(N2C[C@@H]3CCCN[C@@H]3C2)c(F)cc2c(=O)c(C(=O)O)cn(C3CC3)c12 [Moxifloxacin]",
    "TARGET_SYSTEM": "P. aeruginosa ATCC 27853",
    "VALUE": 0.016
  },
  {
    "COMPOUND": "CN(C)c1ccc(O)c2c1C[C@H]1C[C@H]3[C@H](N(C)C)C(O)=C(C(N)=O)C(=O)[C@@]3(O)C(O)=C1C2=O [Minocycline]",
    "TARGET_SYSTEM": "P. aeruginosa ATCC 27853",
    "VALUE": 0.125
  },
  {
    "COMPOUND": "C[C@H]1COc2c(N3CCN(C)CC3)c(F)cc3c(=O)c(C(=O)O)cn1c23 [Levofloxacin]",
    "TARGET_SYSTEM": "P. aeruginosa ATCC 27853",
    "VALUE": 0.063
  },
  {
    "COMPOUND": "C[C@@H](O)[C@H]1C(=O)N2C(C(=O)O)=C(SCCN=CN)C[C@H]12 [Imipenem]",
    "TARGET_SYSTEM": "P. aeruginosa ATCC 27853",
    "VALUE": 2
  },
  {
    "COMPOUND": "CO/N=C(\\C(=O)N[C@@H]1C(=O)N2C(C(=O)[O-])=C(C[n+]3cccc4c3CCC4)CS[C@H]12)c1csc(N)n1 [Cefpirome]",
    "TARGET_SYSTEM": "P. aeruginosa ATCC 27853",
    "VALUE": 0.5
  },
  {
    "COMPOUND": "O=C(N[C@H](CO)[C@H](O)c1ccc([N+](=O)[O-])cc1)C(Cl)Cl [Chloramphenicol]",
    "TARGET_SYSTEM": "P. aeruginosa ATCC 27853",
    "VALUE": 2
  }
]
